# Tested on: rodent lifetime carcinogenesis bioassay, tumor incidence TD50
# test.summary: carcinogenic potency in animals, long-term in vivo studies, CPDB compilation (AID 1745844)
# test.context: mouse; strain Charles River CD1; females; in drinking water; site: any site (literature study); lesion: malignant tumor; dosed 118 weeks; study length 118 weeks
Calls of active or inactive are those of the source. No rule for the calls is given here.
readout.kind: TD50

input: # value lookup — system rodent lifetime carcinogenesis bioassay, tumor incidence TD50, readout TD50, item [Cl][Hg][Cl]
output: 5.55 mg/kg/day (inactive)

* * *

# System: rodent lifetime carcinogenesis bioassay, tumor incidence TD50
# test.summary: carcinogenic potency in animals, long-term in vivo studies, CPDB compilation (AID 1745844)
# test.context: rat; strain Fischer 344; females; in feed; site: any site (literature study); lesion: several types; types named in the paper; dosed 52 weeks; study length 52 weeks
Active and inactive are the calls of the source. The rule behind the calls is not given here.
readout.kind: TD50

input: May I ask what TD50 has been recorded for CC(=O)OC[C@H]1O[C@@](COC(=O)C(C)C)(O[C@H]2O[C@H](COC(C)=O)[C@@H](OC(=O)C(C)C)[C@H](OC(=O)C(C)C)[C@H]2OC(=O)C(C)C)[C@@H](OC(=O)C(C)C)[C@@H]1OC(=O)C(C)C ?
output: 3250 mg/kg/day (inactive)

* * *

# Test system: rodent lifetime carcinogenesis bioassay, tumor incidence TD50
# test.summary: carcinogenic potency in animals, long-term in vivo studies, CPDB compilation (AID 1745844)
# test.context: rat; strain Fischer 344; males; i.p.; site: any site (literature study); lesion: several types; types named in the paper; dosed 56 weeks; study length 76 weeks
readout.kind: TD50 (mg/kg/day)
Just the number in mg/kg/day, nothing appended.

input: Need TD50, item C/C=C(/C)C(=O)O[C@H]1CCN2CC=C(COC(=O)[C@@](O)([C@H](C)OC)C(C)(C)O)[C@H]12
output: 0.152

* * *

# Tested on: rodent lifetime carcinogenesis bioassay, tumor incidence TD50
# test.summary: carcinogenic potency in animals, long-term in vivo studies, CPDB compilation (AID 1745844)
# test.context: mouse; strain C3H (MTV+); males; in drinking water; site: spleen; lesion: hemangioendothelial sarcoma; dosed 30 weeks; study length 54 weeks
readout.kind: TD50

input: Which TD50 is listed for CN(N=O)C(N)=O ?
output: 1.23 mg/kg/day

* * *

# Tested on: rodent lifetime carcinogenesis bioassay, tumor incidence TD50
# test.summary: carcinogenic potency in animals, long-term in vivo studies, CPDB compilation (AID 1745844)
# test.context: rat; strain Osborne-Mendel; males; by gavage; site: thyroid gland; lesion: follicular-cell adenoma + follicular-cell carcinoma; dosed 104 weeks; study length 105 weeks
readout.kind: TD50

input: What does the data say about its TD50? Entry: Clc1cc2c(cc1Cl)Oc1cc(Cl)c(Cl)cc1O2
output: 0.000101 mg/kg/day

* * *

# Test system: rodent lifetime carcinogenesis bioassay, tumor incidence TD50
# test.summary: carcinogenic potency in animals, long-term in vivo studies, CPDB compilation (AID 1745844)
# test.context: rat; strain Sprague-Dawley; females; in feed; site: liver; lesion: hemangioendothelial sarcoma; dosed 40 weeks; study length 59 weeks
readout.kind: TD50

input: TD50 lookup needed for CC(=O)Nc1nnc(-c2ccc([N+](=O)[O-])o2)s1 , thanks.
output: 22.9 mg/kg/day

* * *

# Test system: rodent lifetime carcinogenesis bioassay, tumor incidence TD50
# test.summary: carcinogenic potency in animals, long-term in vivo studies, CPDB compilation (AID 1745844)
# test.context: rat; strain Fischer 344; males; in feed; site: thyroid gland; lesion: c-cell carcinoma; dosed 78 weeks; study length 106 weeks
Calls of active or inactive are those of the source. No rule for the calls is given here.
readout.kind: TD50

input: Return reported TD50; argument: CCOc1ccc(NC(C)=O)cc1N
output: 610 mg/kg/day (inactive)
